- tested.on: KDR kinase (Homo sapiens, UniProt P35968, DEL940-989/E990V)
- Sequence (P35968 with tags, fused parts or gaps DEL940-989/E990V): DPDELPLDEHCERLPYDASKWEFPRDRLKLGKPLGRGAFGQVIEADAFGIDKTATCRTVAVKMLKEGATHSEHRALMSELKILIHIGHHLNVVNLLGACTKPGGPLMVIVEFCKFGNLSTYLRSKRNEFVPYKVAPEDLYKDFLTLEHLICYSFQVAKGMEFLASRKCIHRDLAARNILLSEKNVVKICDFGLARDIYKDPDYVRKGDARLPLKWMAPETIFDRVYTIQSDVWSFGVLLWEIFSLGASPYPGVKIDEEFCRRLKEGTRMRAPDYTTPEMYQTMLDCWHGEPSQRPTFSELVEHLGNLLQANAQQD
- test.name: KDR kinase assay K1
- Format: biochemical
- experimental.conditions: read-out: Results, % @ concentration μM, Method K1; @ 10 μM
readout.name: inhibition at 10 µM (%)
One number for each entry, in %.

# annotated cases, reported inhibition at 10 µM shown
molecule: CC(C)(C)c1cc(NC(=O)Nc2ccc(F)cc2F)n(-c2ccc(CC(N)=O)cc2)n1
unit.descriptor: %
inhibition at 10 µM: 60
//
molecule: CCOC(=O)Cc1ccc(-n2nc(C3CCCC3)cc2NC(=O)Nc2cccc(Cl)c2Cl)cc1
unit.descriptor: %
inhibition at 10 µM: 32
//
molecule: CN(C)[C@@H]1CCN(C(=O)Cc2ccc(-n3nc(C(C)(C)C)cc3NC(=O)Nc3cccc(Cl)c3Cl)cc2)C1
unit.descriptor: %
inhibition at 10 µM: 92
//
molecule: O=C(O)Cc1ccc(-n2nc(-c3cccs3)cc2NC(=O)Nc2cccc(Cl)c2Cl)cc1
unit.descriptor: %
inhibition at 10 µM: 25
//
molecule: NC(=O)Cc1cccc(-n2nc(-c3ccccc3F)cc2NC(=O)Nc2cccc(Cl)c2Cl)c1
unit.descriptor: %
inhibition at 10 µM: 45

Would you mind listing inhibition at 10 µM for each of the following molecules?
1. O=C(O)Cc1cccc(-n2nc(-c3ccccc3F)cc2NC(=O)Nc2cccc(Cl)c2Cl)c1
2. O=C(Cc1cccc(-n2nc(-c3cccs3)cc2NC(=O)Nc2cccc(Cl)c2Cl)c1)NCC(O)CO (stereo not shown)
3. O=C(Cc1cccc(-n2nc(-c3ccccc3F)cc2NC(=O)Nc2cccc(Cl)c2Cl)c1)NCCO

1. 63
2. 26
3. 53

Would you mind listing inhibition at 10 µM for each of the following molecules?
1. CC(C)(C)c1cc(NC(=O)Nc2ccc(F)c(F)c2F)n(-c2cccc(CC(N)=O)c2)n1
2. O=C(O)Cc1ccc(-n2nc(C3CCCC3)cc2NC(=O)Nc2cccc(Cl)c2Cl)cc1
3. O=C(Cc1cccc(-n2nc(-c3cccs3)cc2NC(=O)Nc2cccc(Cl)c2Cl)c1)NC(CO)CO
4. CC(C)(C)c1cc(NC(=O)Nc2ccc(F)c(F)c2F)n(-c2ccc(CC(=O)O)cc2)n1
5. O=C(O)Cc1ccc(-n2nc(-c3ccccc3)cc2NC(=O)Nc2cccc(Cl)c2Cl)cc1
6. O=C(Nc1cccc(Cl)c1Cl)Nc1cc(-c2ccccc2)nn1-c1cccc(CO)c1

77
62
25
50
39
37

Would you mind listing inhibition at 10 µM for each of the following molecules?
1. O=C(Nc1cccc(Cl)c1Cl)Nc1cc(-c2cccs2)nn1-c1cccc(CC(=O)N2CC[C@H](O)C2)c1
2. O=C(Cc1cccc(-n2nc(-c3ccccc3F)cc2NC(=O)Nc2cccc(Cl)c2Cl)c1)NCC(O)CO (stereo not shown)

1: 47; 2: 33
